- Tested on: PPARg:RXRa (NR concentration 180 nM, RXRa partner concentration 90 nM)
- testDescription: PBM binding z-score (relative to random genomic background probes); higher = stronger binding; sequences stand for … in GC…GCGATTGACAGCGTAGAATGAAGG
Please use TRUE whenever PBM binding z-score is not below 1, and FALSE whenever it is.

Look over these answered cases.
ACAGACAGGTGATGAAGGTAATTCAGGCTATCAT :: FALSE
ACTATTAGTTGACTTATGGCAACCGATACGACGC :: TRUE
TCTTGTAGATCAGCAGGTTAAGATAGCTGGCCAA :: FALSE
AGAACGAGGGCACGCTGAGTTGATAGTAGAGTAG :: TRUE
TAGCCTAGTTCAGATCGGGCCAGTATACGCTATA :: FALSE

Query: hey, is PBM binding z-score for this one >= 1? CCTACTGGGCCAAAGGTCATTAATTCCAATGCTC
Result: TRUE

====

- Test system: LXRa homodimer (NR concentration 270 nM)
- testDescription: PBM binding z-score (relative to random genomic background probes); higher = stronger binding; sequences stand for … in GC…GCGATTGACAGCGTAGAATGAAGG
readout: PBM binding z-score

Worked cases, PBM binding z-score given:
CCTATTAGTTGTCCATAAGGGCAACCGAAGCTCG :: 0.8
AGTCAAAGTTCAGGACGAGGAAACGTAAAGCACG :: 0.784
ATATGTAGTTTAGCTGGGGTCATTCAGACTAGGC :: 2.38
CTACAAAGGTGAACAAGGTCGTTGATTACTATTC :: 0.453
ACAGACAGGTGATGGAGGTAACTCAGGCTATCAT :: -0.062

Query: Checklist item: PBM binding z-score tested on LXRa homodimer (NR concentration 270 nM), entry CTTGCTAGGTCAATGGTCAGCTAAAGCAGCTCGC , value?
Result: 0.107

Query: Checklist item: PBM binding z-score tested on LXRa homodimer (NR concentration 270 nM), entry GCTATTTGTTGAAAGGGCAACCGAATGATTCTCG , value?
Result: 0.386

Query: Checklist item: PBM binding z-score tested on LXRa homodimer (NR concentration 270 nM), entry CAAACTCGGTCAAGGTCAAAGTCGGTTTGTGCCA , value?
Result: 3.66

Query: Checklist item: PBM binding z-score tested on LXRa homodimer (NR concentration 270 nM), entry GAGACAGGGTCAAGGCCAGAGTACGCGTATTGAT , value?
Result: -0.408

Query: Checklist item: PBM binding z-score tested on LXRa homodimer (NR concentration 270 nM), entry GCTGCTTGGTCAACTGATGGTCAGCTAAAGCTCG , value?
Result: -0.675

Query: Checklist item: PBM binding z-score tested on LXRa homodimer (NR concentration 270 nM), entry CAGCTTAGGTCAGGGCCAGTATAGGAGGAACGTT , value?
Result: -0.0157

Query: Checklist item: PBM binding z-score tested on LXRa homodimer (NR concentration 270 nM), entry CCTACTGGGCCAAAAAGGTCCTTGATGCCGATAA , value?
Result: -0.584

Query: Checklist item: PBM binding z-score tested on LXRa homodimer (NR concentration 270 nM), entry TAGCCTAGGTCATTCGGCCAGTATAGTACGCATC , value?
Result: 1.18

Query: Checklist item: PBM binding z-score tested on LXRa homodimer (NR concentration 270 nM), entry ACTAGCAGGCCAAGGGTAACTCAAGATTAGTCCG , value?
Result: -0.457

Query: Checklist item: PBM binding z-score tested on LXRa homodimer (NR concentration 270 nM), entry CAAGCTAGGTCAAGGTCAAAGTCGGTTTGTGCCA , value?
Result: 4.42

Query: Checklist item: PBM binding z-score tested on LXRa homodimer (NR concentration 270 nM), entry GCTAACAGGCCATTTGGGTCACTCAATGACGGGC , value?
Result: -0.00824
